B1: library; numbered along this chain (parent)
chain: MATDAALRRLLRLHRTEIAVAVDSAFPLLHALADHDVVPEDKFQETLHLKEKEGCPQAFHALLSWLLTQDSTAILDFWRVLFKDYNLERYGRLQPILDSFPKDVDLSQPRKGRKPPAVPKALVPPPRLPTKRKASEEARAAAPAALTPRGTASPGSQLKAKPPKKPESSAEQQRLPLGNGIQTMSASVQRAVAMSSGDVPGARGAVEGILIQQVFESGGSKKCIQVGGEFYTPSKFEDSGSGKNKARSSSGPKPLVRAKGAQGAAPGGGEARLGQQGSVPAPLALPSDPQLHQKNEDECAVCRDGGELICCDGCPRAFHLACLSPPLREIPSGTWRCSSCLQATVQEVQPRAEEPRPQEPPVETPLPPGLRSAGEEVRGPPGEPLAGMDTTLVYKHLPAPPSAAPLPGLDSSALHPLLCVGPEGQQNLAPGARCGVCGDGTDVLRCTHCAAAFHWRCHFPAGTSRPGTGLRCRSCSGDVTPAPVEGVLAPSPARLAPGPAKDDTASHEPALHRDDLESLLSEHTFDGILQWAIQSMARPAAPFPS

variants of: B1; assay: AIRE transcriptional activation functional score (insulin promoter-GFP; nonsense median 0, synonymous median 1) (normalised score); higher = higher AIRE activity (more reporter activation); details: with insulin promoter-GFP reporter in HEK293
METRIC NAME: AIRE transcriptional activation functional score
Respond numerically, and do not add a unit to the figure.

Query (variant): `L62P` ; field requested: AIRE transcriptional activation functional score
-0.295

Entry source: the supplement of paper PMC12667976
